- targetOrTestSystem: DnaJB4 (recombinant, human, full length, wild type) (human, UniProt Q9UDY4 1-337)
- Sequence (Q9UDY4 whole entry): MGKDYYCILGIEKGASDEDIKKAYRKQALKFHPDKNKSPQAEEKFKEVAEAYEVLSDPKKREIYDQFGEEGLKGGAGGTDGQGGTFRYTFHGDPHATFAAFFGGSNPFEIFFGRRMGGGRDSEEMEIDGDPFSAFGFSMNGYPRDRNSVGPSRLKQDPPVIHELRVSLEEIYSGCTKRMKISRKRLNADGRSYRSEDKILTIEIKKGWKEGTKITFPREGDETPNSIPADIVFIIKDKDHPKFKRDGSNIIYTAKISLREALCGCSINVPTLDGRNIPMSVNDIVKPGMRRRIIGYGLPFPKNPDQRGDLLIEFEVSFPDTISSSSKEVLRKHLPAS
- procedureText: FP
Where no end group is shown, it is not given here.
experimentalEndpoint: Kd

// Kd lookup, key: GSGPEIEEVD-OH (not fully specified (N-terminus); printed as FITC-Ahx-GSGPEIEEVD) [Hsp72 phosphomimetic T636E tracer FITC-Ahx-GSGPEIEEVD]
1680 nM
